System: NCI-H727
ASSAY_PROTOCOL: Cell proliferation assay (CellTiterGlo), NCI-H727
Type: cell-based
TEST_CONTEXT: Homo sapiens, NCI-H727, 72 hours
ASSAY_ENDPOINT: IC50 (nM)
Give your result in nM as a bare value.

* CCc1c(F)ccc2cc(O)cc(-c3ncc4c(N5CCC[C@]6(CCO6)C5)nc(OCC5(CN6CCCCC6)CC5)nc4c3F)c12 | 15

Problem: Recorded IC50 for CCc1c(F)ccc2cc(O)cc(-c3ncc4c(N5CCC[C@]6(CCO6)C5)nc(OCC5(CN(C)C)CC5)nc4c3F)c12 [Compound 34a] , please?
Solution: 13.7

Problem: Next up: CCc1c(F)ccc2cc(O)cc(-c3ncc4c(N5CCC[C@]6(CCO6)C5)nc(OCC5(CN6CCCC6)CC5)nc4c3F)c12 [Compound 10a]
Solution: 17

Problem: Note, next up: CCc1c(F)ccc2cc(O)cc(-c3ncc4c(N5CCCC(C)(O)C5)nc(OC[C@@]56CCCN5C[C@H](F)C6)nc4c3F)c12 (stereo partly shown) [Compound A1, reference compound]
Solution: 130

Problem: Another compound to look at: "CCc1c(F)ccc2cc(O)cc(-c3ncc4c(N5CCC[C@H]5C(=O)OC)nc(OC[C@@]56CCCN5C[C@H](F)C6)nc4c3F)c12"
Solution: 5310

Problem: Quick one: CCc1c(F)ccc2cc(O)cc(-c3ncc4c(N5CCC[C@]6(CCO6)C5)nc(OCC(C)(C)CN(C)C)nc4c3F)c12 [Compound 26a]
Solution: 37.4

Problem: Consider next the compound CCc1c(F)ccc2cc(O)cc(-c3ncc4c(N5CCC[C@]6(CCO6)C5)nc(OCC5(CN(CC)CC)CC5)nc4c3F)c12 [Compound 27a] in the same way.
Solution: 24.8

Problem: Ok, now "CCc1c(F)ccc2cc(O)cc(-c3ncc4c(N5CC[C@@H](O)C5)nc(OC[C@@]56CCCN5C[C@H](F)C6)nc4c3F)c12"
Solution: 1870

Problem: Another compound to look at: CCc1c(F)ccc2cc(O)cc(-c3ncc4c(N5CCC[C@]6(CCO6)C5)nc(OCC5(CN6CCC(F)CC6)CC5)nc4c3F)c12 [Compound 29a]
Solution: 14.7

Problem: Now give it for "CCc1c(F)ccc2cc(O)cc(-c3ncc4c(N5CCC[C@H]5CO)nc(OC[C@@]56CCCN5C[C@H](F)C6)nc4c3F)c12" too.
Solution: 1080

Problem: Could you do the same for "CCc1c(F)ccc2cc(O)cc(-c3ncc4c(N5C[C@H](O)C[C@H]5C(=O)OC)nc(OC[C@@]56CCCN5C[C@H](F)C6)nc4c3F)c12" , please?
Solution: 4040

* * *

System: phosphorylation of p-ERK1/2 in HT-29
ASSAY_PROTOCOL: Cellular phospho-ERK inhibition, HT-29
Type: cell-based
TEST_CONTEXT: Homo sapiens; HT-29, 4 hours
pIC50: −log10 of the molar value.
ASSAY_ENDPOINT: pIC50

Problem: Query: pIC50; subject: CCc1c(F)ccc2cc(O)cc(-c3ncc4c(N5CCCC6(CCO6)C5)nc(OC[C@@]56CCCN5C[C@H](F)C6)nc4c3F)c12 (stereo partly shown) [Compound 25]
Solution: < 6.00

* * *

ASSAY_PROTOCOL: Microsomal stability assay, human liver microsomes
Format: in vitro ADME
TEST_CONTEXT: pooled human liver microsomes, 0.5 mg/mL protein
ASSAY_ENDPOINT: CLint scaled at 1 μM (L/h/kg)
State the answer as a number, implicitly in L/h/kg.

Problem: Need CLint scaled at 1 μM of CCc1c(F)ccc2cc(O)cc(-c3ncc4c(N5CCC[C@]6(CCO6)C5)nc(OCC5(CN(C)C)CC5)nc4c3F)c12 [Compound 34a] , thanks.
Solution: 1.58

Problem: Now give it for "CCc1c(F)ccc2cc(O)cc(-c3ncc4c(N5CCC[C@@]6(CCO6)C5)nc(OC[C@@]56CCCN5C[C@H](F)C6)nc4c3F)c12" too.
Solution: 5.01

Problem: Note, next up: CCc1c(F)ccc2cc(O)cc(-c3ncc4c(N5CCCC(C)(O)C5)nc(OC[C@@]56CCCN5C[C@H](F)C6)nc4c3F)c12 (stereo partly drawn) [Compound A1, reference compound]
Solution: 2.76
